Where do these numbers come from? They come from PubChem BioAssay (NCI).

# maps each entry to its TGI
# Test system: HOP-62 NSCLC
# assay_procedure: NCI tumour cell line growth inhibition, 48 h

In [3]: df
Out[3]:
                                   molecule  measured_parameter   measured
0       CCOC(=O)c1c(NC(=O)c2cccs2)sc2c1CCC2                 TGI   > 100 µM
1     COc1ccc(C[C@@H](CO)NC2=C(C#N)CCC2)cc1                 TGI   > 100 µM
2  CC(=O)Oc1cc(Cl)c(C)c2c1[C@H]1CC[C@]3(C)[C@@H](OC(C)=O)CC[C@H]3[C@@H]1CC2                 TGI   > 100 µM
3  COc1ccc(N2C(=O)/C(=C/c3ccc(N(CCC#N)CCC#N)cc3C)N=C2c2cc([N+](=O)[O-])ccc2Cl)cc1                 TGI  > 63.1 µM
4  CN(CCC(=O)O)C1=Nc2ccc(Cl)cc2C(c2ccccc2)=[N+]([O-])C1                 TGI   > 100 µM

Inquiry: TGI lookup needed for CCOC(=O)/C(C#N)=C/c1[nH]c(C(=O)OCc2ccccc2)c(C)c1C , thanks.
Reply text: > 100 µM

Inquiry: Recorded TGI for COC(=O)C1=C(O)C(C(=O)OC)[C@]2(O)[C@H](C(=O)OC)[C@H]1C[C@@H](c1ccc(OC)c(OC)c1)[C@H]2C(=O)OC (stereo not given in full) , please?
Reply text: > 100 µM

Inquiry: Any idea what its TGI is? The molecule is Cn1c2ccccc2c2ccc3c(c21)C(=O)c1ccccc1C3=O
Reply text: 45.5 µM

Inquiry: Please give the measured TGI for this molecule: CCN(CCO)C(=O)C1(c2ccccc2)CCCCC1
Reply text: > 10 µM

Inquiry: Query: TGI; subject: CC(=N)OC1CC2CCC1(C)C2(C)C (stereo not given)
Reply text: > 100 µM
